# IC50 per entry for HPK1 (Homo sapiens, UniProt Q92918)

Would you please look over these solved cases?
CN1C(=O)Cc2cc(-c3cc(Nc4ccc(N5CCC(O)CC5)cn4)c4c(=O)[nH]ccc4n3)cnc21    100 to 1000 nM
N#CC1CCN(C(=O)c2ccc(-c3cc(Nc4ccc(N5CCC(O)CC5)cn4)c4c(=O)[nH]ccc4n3)c(F)c2)CC1    100 to 1000 nM
CC(C)(O)c1c[nH]c(=O)c2c(Nc3ccc(N4CCC(O)CC4)cn3)cc(-c3c(F)cccc3F)nc12    100 to 1000 nM
COc1cc(-c2cc(Nc3ccc(N4CCC(O)CC4)cn3)c3c(=O)[nH]ccc3n2)ccc1C(=O)N1CCCCC1    > 1000 nM
O=c1[nH]ccc2nc(N3CCC4(CCNC4)CC3)cc(Nc3ccc(N4CCC(O)CC4)cn3)c12    ≤ 100 nM

Look up IC50 for the entries below, preserving their order.
1. O=c1[nH]ccc2nc(-c3c(F)ccc4c3CCNC4)cc(Nc3cc(C4CCOC4)n[nH]3)c12 (stereo not shown)
2. CN1CCN(C(=O)c2ccc(-c3cc(Nc4ccc(N5CCC(O)CC5)cn4)c4c(=O)[nH]ccc4n3)c(F)c2)CC1

Solution:
1. ≤ 100 nM
2. 100 to 1000 nM
